Items are presented alongside their recorded pKi.
SUBJECT OF TEST: CDS1/CHK-2 (CDS1 CE4) (Homo sapiens)
Construct: CDS1 CE4 contains residues 209-502 including the kinase domain; 6xHis leader with thrombin site; first M absent from the expressed protein) (N)
Sequence (O96017 209-502): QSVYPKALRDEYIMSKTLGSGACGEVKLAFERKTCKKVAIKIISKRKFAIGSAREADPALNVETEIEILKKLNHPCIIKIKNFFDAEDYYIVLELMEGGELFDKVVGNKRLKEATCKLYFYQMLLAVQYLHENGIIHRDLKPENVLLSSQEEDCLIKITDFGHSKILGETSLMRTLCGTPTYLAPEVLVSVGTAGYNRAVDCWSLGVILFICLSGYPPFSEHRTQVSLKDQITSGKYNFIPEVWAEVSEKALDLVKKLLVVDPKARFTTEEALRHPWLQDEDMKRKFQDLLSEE
PROTOCOL DESCRIPTION: CDS1 assay (conditions identical to the CHK-1 assay)
CONDITION NOTES: 10 nM CDS1
// scale note: pKi = -log10(conc_M); give the bare number

Examples with answers:
COMPOUND	pKi
ON=C1c2cc(I)ccc2-c2cc3[nH]nnc3cc21 (mixture of isomers)	7.68
Nc1cc2c(cc1[N+](=O)[O-])-c1cc([N+](=O)[O-])c(N)cc1C2=NO [Comparison Ex. 2(c), reference compound]	4.43
Nc1cc2c(cc1N)-c1ccccc1C2=NO [Comparison Ex. 2(b), reference compound]	6.22

Read the next record carefully.
Q) What pKi value was documented for this compound, O/N=C1/c2ccccc2-c2nc3nonc3nc21 [Comparison Ex. 1, reference compound] ?
A) 4.82

====

SUBJECT OF TEST: phosphorylated VEGF-R2Δ50 (FLVK-P) (Homo sapiens, UniProt P35968, DEL940-989/E990V)
Construct: VEGF-R2Δ50 contains residues 806-939 and 990-1171
Sequence (P35968 with tags, fused parts or gaps DEL940-989/E990V limits assumed): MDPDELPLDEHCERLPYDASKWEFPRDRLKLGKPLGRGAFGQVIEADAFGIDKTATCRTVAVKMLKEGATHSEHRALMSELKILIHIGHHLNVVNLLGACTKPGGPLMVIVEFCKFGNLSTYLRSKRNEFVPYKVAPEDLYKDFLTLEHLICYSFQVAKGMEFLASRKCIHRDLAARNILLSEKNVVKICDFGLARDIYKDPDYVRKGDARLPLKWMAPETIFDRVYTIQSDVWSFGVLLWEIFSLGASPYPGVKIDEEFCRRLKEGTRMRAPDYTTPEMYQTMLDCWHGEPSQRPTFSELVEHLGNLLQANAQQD
PROTOCOL DESCRIPTION: VEGF-R2 coupled spectrophotometric (FLVK-P) assay
CONDITION NOTES: phosphorylated VEGF-R2Δ50, 1 mM ATP
MEASUREMENT LABEL: pKi
// scale note: pKi = -log10(conc_M); give the bare number

COMPOUND	pKi
ON=C1c2ccccc2-c2cc3[nH]cnc3cc21 (mixture of isomers) [Example A]	5.88
O/N=C1/c2ccccc2-c2nc3nonc3nc21 [Comparison Ex. 1, reference compound]	4.80
Nc1nc2cc3c(cc2[nH]1)-c1ccccc1C3=NO (mixture of isomers) [Example B]	5.72
ON=C1c2ccccc2-c2cc3[nH]nnc3cc21 (mixture of isomers) [Example C]	5.83
Nc1cc2c(cc1N)-c1ccccc1C2=NO [Comparison Ex. 2(b), reference compound]	6.03

Read the next record carefully.
Q) What pKi value was documented for this compound, Nc1cc2c(cc1[N+](=O)[O-])-c1ccccc1C2=NO [Comparison Ex. 2(a), reference compound] ?
A) 4.81
